target: S-nitrosoglutathione reductase (GSNOR) (Homo sapiens, UniProt P11766); construct: made in house; host or cells: E. coli; assay: GSNOR assay (inhibition of GSNOR activity, NADH absorbance at 340 nm); type: biochemical; conditions: GSNOR inhibitor activity, Tables 1-6; read-out: IC50 range
Sequence (P11766 whole entry): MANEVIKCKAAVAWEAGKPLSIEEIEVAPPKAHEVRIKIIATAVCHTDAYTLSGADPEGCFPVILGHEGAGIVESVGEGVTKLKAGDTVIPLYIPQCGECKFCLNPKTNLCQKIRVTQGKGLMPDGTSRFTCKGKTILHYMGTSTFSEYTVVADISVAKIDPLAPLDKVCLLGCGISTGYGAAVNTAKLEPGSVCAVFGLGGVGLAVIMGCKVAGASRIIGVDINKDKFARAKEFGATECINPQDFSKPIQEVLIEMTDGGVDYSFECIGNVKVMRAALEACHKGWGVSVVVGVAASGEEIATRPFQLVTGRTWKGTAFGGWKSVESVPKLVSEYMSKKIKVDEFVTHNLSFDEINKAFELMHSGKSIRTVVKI
Recorded IC50 for the following molecules

// query So what's the measured IC50 for this one? O=C(O)C1CC=C(c2ccc3cc(O)ccc3n2)CC1 (centres unmarked) [Compound I-16]
// result 100 to 1000 nM

// query So what's the measured IC50 for this one? COc1cc(C(=O)O)ccc1-c1c(C(F)(F)F)oc2cc(O)ccc2c1=O [IV-20]
// result < 100 nM

// query So what's the measured IC50 for this one? O=c1c(-c2ccc(-c3nnn[nH]3)cc2)c(C(F)F)oc2cc(O)ccc12 [IV-27]
// result < 100 nM

// query So what's the measured IC50 for this one? O=C(O)c1ncc(-c2ccc3cc(O)ccc3c2)cn1 [III-14]
// result 1000 to 10000 nM

// query So what's the measured IC50 for this one? O=c1c(Oc2ccc([N+](=O)[O-])c(O)c2)c(C(F)(F)F)oc2cc(O)ccc12 [Compound V-16]
// result < 100 nM

====

target: S-nitrosoglutathione reductase (GSNOR) (Homo sapiens, UniProt P11766); construct: made in house; host or cells: E. coli; experiment: GSNOR assay (inhibition of GSNOR activity, NADH absorbance at 340 nm); assay type: biochemical; conditions: Table 8; GSNOR inhibition, IC50 range class a/b/c; read-out: IC50
measure: IC50

O=C(O)c1ccc(-c2nc3ccc(O)cc3s2)cc1 [VIII-7]: 100 to 1000 nM
O=C(O)c1ccc(-c2cc(=O)c3cc(O)ccc3[nH]2)c(F)c1 [VIII-8]: 1000 to 10000 nM

Now let's try a different one.
// query So what's the measured IC50 for this one? CSc1nc2cc(O)ccc2c(=O)n1-c1ccc(C(=O)O)cc1 [VIII-1]
// result 1000 to 10000 nM

====

biological target: S-nitrosoglutathione reductase (GSNOR) (Homo sapiens, UniProt P11766); construct: made in house; host or cells: E. coli; assay: GSNOR assay (inhibition of GSNOR activity, NADH absorbance at 340 nm); assay type: biochemical; settings: GSNOR inhibitor activity, Tables 1-6; read-out: IC50 range
Recorded IC50 for the following molecules

Oc1ccc2nc(-c3ccc(-c4nn[nH]n4)s3)ccc2c1: 0.1 to 1 µM

// query So what's the measured IC50 for this one? O=C(O)c1ccc(CC(=O)c2ccc(O)c(F)c2F)cc1
// result < 0.1 µM

// query So what's the measured IC50 for this one? O=C(O)c1ccc(-c2c(C(F)(F)F)oc3cc(O)ccc3c2=O)cc1Cl
// result < 0.1 µM

// query So what's the measured IC50 for this one? O=C(O)c1ccc(-c2c(C(F)(F)F)oc3cc(O)ccc3c2=O)cc1
// result < 0.1 µM

// query So what's the measured IC50 for this one? O=C(O)c1ccc(CS(=O)(=O)c2ccc(O)c(F)c2)c(F)c1
// result < 0.1 µM

// query So what's the measured IC50 for this one? O=C(O)c1ccc(CCC(=O)c2ccc(O)cc2)cc1
// result 1 to 10 µM
